compounds and their reported IC50
# Target desc: DP9 (Homo sapiens (Human), UniProt Q86TI2)
# Sequence (Q86TI2 whole entry, species assumed, canonical isoform): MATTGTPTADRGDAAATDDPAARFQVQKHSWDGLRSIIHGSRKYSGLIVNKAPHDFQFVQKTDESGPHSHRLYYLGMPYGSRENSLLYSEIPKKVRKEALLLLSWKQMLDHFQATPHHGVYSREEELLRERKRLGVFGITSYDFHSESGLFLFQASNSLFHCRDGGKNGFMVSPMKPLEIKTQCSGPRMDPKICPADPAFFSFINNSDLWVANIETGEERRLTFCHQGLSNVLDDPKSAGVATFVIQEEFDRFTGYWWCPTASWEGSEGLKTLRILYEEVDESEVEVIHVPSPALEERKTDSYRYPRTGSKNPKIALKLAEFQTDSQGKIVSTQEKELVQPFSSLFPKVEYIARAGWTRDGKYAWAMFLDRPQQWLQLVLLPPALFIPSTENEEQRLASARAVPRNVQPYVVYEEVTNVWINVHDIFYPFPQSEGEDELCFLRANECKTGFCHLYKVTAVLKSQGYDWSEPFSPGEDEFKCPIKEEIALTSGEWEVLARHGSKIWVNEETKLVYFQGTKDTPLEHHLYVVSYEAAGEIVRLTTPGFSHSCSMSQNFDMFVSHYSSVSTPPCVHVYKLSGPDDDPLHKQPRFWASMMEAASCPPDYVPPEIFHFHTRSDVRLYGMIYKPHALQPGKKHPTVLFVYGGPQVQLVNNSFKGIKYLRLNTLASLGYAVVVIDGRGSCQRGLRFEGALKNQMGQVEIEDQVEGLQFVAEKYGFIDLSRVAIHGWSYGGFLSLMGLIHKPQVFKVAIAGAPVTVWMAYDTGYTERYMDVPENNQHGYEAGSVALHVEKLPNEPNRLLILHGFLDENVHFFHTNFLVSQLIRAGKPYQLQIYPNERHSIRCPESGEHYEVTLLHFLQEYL
# Assay: Selectivity for dipeptidyl peptidase isoforms, DP9
# Type: biochemical
# Measurement setup: pH 2; read-out: IC50s DP9 pH 2
# Protocol: The inhibitor solution is prepared by dissolving 3-5 mg of inhibitor in pH 2 solution (0.01 N HCl), such that the concentration of the solution is equal to 1 mg/10 mL. […] Once the plate has been allowed to incubate, 30 μL of substrate is added to each well except well #A1. […] The absorbance is then immediately read at a wavelength of 410 nm. In this example, the assay is conducted for DPIV and DP8 or DP9. […] IC50 values were measured at the same pH throughout the assay.

{"Compound": "OB(O)[C@@H]1CCCN1C(=S)[C@@H]1CCCN1 [Pro-boroPro Thioxamide]", "IC50, nM": 1.9}
{"Compound": "N[C@@H](CCC(=O)O)C(=S)N1CCC[C@H]1B(O)O [Glu-boroPro Thioxamide]", "IC50, nM": 8.7}
